- System: Nuclear receptor ROR-gamma (Homo sapiens, UniProt P51449)
- Sequence (P51449 whole entry): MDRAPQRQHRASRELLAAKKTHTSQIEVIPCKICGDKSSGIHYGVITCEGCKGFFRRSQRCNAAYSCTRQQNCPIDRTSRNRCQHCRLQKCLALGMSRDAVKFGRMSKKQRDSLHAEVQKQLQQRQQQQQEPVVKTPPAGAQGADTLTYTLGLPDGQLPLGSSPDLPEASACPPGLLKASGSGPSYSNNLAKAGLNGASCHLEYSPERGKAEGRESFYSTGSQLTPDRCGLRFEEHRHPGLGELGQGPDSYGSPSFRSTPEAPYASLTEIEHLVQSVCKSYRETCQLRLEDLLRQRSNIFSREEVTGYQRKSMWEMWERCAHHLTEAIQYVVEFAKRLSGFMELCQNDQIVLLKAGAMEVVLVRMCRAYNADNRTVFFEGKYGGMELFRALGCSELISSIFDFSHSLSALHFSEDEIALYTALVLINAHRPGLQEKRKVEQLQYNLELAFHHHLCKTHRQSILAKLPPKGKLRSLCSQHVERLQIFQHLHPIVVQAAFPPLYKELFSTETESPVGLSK
- Assay overview: Inverse agonist activity at human RoRc in human skin model assessed as suppression of IL-17A level relative to control
- Format: functional
Provide the reported EC50 of each item.

So for NC(=O)c1ccc2c(c1)CCN2Cc1ccc(C(O)(C(F)(F)F)C(F)(F)F)cc1 , the logged EC50 turned out to be < 10 µM

So for OC(c1ccc(CN2CCCc3cc(-c4cn[nH]c4)ccc32)cc1)(C(F)(F)F)C(F)(F)F , the logged EC50 turned out to be < 10 µM

So for CC(=O)Nc1ccc2c(c1)CCCN2Cc1ccc(C(O)(C(F)(F)F)C(F)(F)F)cc1 , the logged EC50 turned out to be < 10 µM

---

Provide the reported EC50 of each item.
- System: Nuclear receptor ROR-gamma (Homo sapiens, UniProt P51449)
- Sequence (P51449 whole entry): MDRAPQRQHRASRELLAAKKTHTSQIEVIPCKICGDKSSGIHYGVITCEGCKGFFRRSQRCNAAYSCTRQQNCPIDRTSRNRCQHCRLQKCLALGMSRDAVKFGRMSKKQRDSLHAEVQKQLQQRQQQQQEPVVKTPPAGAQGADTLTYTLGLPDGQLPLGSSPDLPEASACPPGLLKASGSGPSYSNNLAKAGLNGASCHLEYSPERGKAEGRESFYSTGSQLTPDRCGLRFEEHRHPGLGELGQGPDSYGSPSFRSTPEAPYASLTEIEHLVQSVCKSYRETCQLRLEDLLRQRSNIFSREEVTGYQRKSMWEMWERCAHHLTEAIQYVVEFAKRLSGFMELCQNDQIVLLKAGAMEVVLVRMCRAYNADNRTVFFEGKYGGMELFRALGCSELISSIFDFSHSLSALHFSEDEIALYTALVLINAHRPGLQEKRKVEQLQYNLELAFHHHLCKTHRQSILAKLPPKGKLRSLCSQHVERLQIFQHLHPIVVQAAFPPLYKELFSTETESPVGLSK
- Assay overview: Inverse agonist activity at human RoRc-LBD fusion protein with GST expressed in […] cells assessed as SRC1 coactivator peptide recruitment
- Format: functional, cell-based

So for O=C(O)c1ccc(-c2nn(C(=O)c3c(Cl)cccc3C(F)(F)F)c3cccnc23)c(F)c1 , the logged EC50 turned out to be < 50 nM

So for Cc1c(S(=O)(=O)NCCO)cc(-c2cc(C(C)(C)C)cc(C(C)(C)C)c2)n1CC1CCCCC1 , the logged EC50 turned out to be < 500 nM

So for O=S(=O)(c1ccccc1OC(F)(F)F)N1Cc2cncnc2-n2ccnc2[C@H]1Cc1ccccc1 , the logged EC50 turned out to be < 500 nM
